From: ChEMBL document CHEMBL1201862

test system: EKVX; experiment: NCI tumour cell line growth inhibition, 48 h
Calls of active or inactive are those of the source. Rule as the data show it: active = GI50 up to about 1.1 µM and inactive = higher.
assay.readout: GI50

>>> df
                                    compound       value_reported
 0  O=CC1=C(C(=O)OC(c2ccccc2)c2ccccc2)N2C(=O)[C@@H](NC(=O)Cc3cccs3)[C@H]2SC1  > 100 µM (inactive)
 1    COC1=CC(=O)c2c(c(-c3nc(C)cs3)cn2C)C1=O   8.65 µM (inactive)
 2  COc1ccc(/C=N/Nc2nc3ccccc3c(=O)n2-c2ccccc2)cc1  > 100 µM (inactive)
 3  CC(C(=O)c1ccncc1)c1ccccn1 (stereo not given)  > 100 µM (inactive)
 4    O=C1Nc2ccccc2S/C1=C\c1cccc(C(F)(F)F)c1  > 100 µM (inactive)
 5  CCN(CC)CCn1ncc2c3c(=O)c4cccnc4n(CCN(CC)CC)c3ccc21   > 10 µM (inactive)
 6  C/C=C/c1cc(=O)c([C@@H]2OC(=O)c3cc(OC)cc(OC)c32)co1   65.5 µM (inactive)
 7  COc1ccc2c(c1)C(OC)C1c3c(cc4c(c3-2)OCO4)CCN1C (stereo not given)   4.34 µM (inactive)
 8  c1ccc2c[n+](CCCC[n+]3ccc4ccccc4c3)ccc2c1  > 100 µM (inactive)
 9  CCOC(=O)C(C)NC(=O)N(C)C12CC3CC(CC(C3)C1)C2 (stereo not given)    450 µM (inactive)
10  CC1(C)C(=O)N(CCCCCCN2C(=O)C(C)(C)c3ccccc32)c2ccccc21   38.1 µM (inactive)
11  COc1ccc2c(c1)[n+]([O-])c(C(=O)CC(=O)C(=O)Nc1cccc(C)c1C)c(C)[n+]2[O-]  > 100 µM (inactive)
12         Cc1ccc(NC(=O)/C=C/c2ccccc2)c(C)c1   26.6 µM (inactive)
13  C[C@]12CC[C@H](O)CC1=CC[C@@H]1C2CC[C@]2(C)C(=O)NC(=O)CC12 (stereo not given in full)  > 100 µM (inactive)
14  Cc1ccc(/C=N\NC2c3cc(Cl)ccc3Nc3nc(O)nc(C)c32)cc1 (stereo not given)  > 100 µM (inactive)

###

Recorded GI50, one value per entry.
system: MCF7; assay: NCI tumour cell line growth inhibition, 48 h
Counter-ions that a name gives are not always drawn. The source made the active and inactive calls. Rule as the data show it: active = GI50 up to about 1.1 µM and inactive = higher.
assay.readout: GI50

>>> print(df.to_string())
                                   compound       value_reported
0         COc1cc(/C=C(\C#N)C(N)=O)cc(Br)c1O   95.1 µM (inactive)
1  CC(=O)c1cccc(NC(=O)/C(=N\NC(=S)NN)C2C(=O)Nc3ccccc3[S+]2[O-])c1 (centres undefined)  > 100 µM (inactive)
2  COc1ccccc1Cn1c2c(c3cc(O)ccc31)C(=O)c1ccccc1C2=O   10.1 µM (inactive)
3  CC(=O)OCC1OC(n2c(-c3ccccc3)c(/N=N/c3ccccc3)c(C)c(C#N)c2=S)C(OC(C)=O)C(OC(C)=O)C1OC(C)=O (centres undefined)  > 100 µM (inactive)
4  O=C1c2c(O)cccc2-c2nn(CCNCCO)c3ccc(NCCNCCO)c1c23 [LOSOXANTRONE HYDROCHLORIDE]   < 0.01 µM (active)
5  COc1cc2c[n+](C)c3c(c2cc1OC)Cc1cc2c(cc1-3)OCO2  > 100 µM (inactive)
6  COc1cc2cc(C(=O)N3CC(CCl)c4c3cc(NC(=O)C(C)(C)c3ccccc3[N+](=O)[O-])c3ccccc43)[nH]c2c(OC)c1OC (centres undefined)    0.142 µM (active)
7  CC(=O)CC1(CBr)Nc2ccc([N+](=O)[O-])cc2NC1=O (centres undefined)   40.9 µM (inactive)
8  BrCc1ccc(CBr)c2c1-c1c(CBr)ccc3ccc(CBr)c-2c13  > 100 µM (inactive)

###

Recorded GI50, one value per entry.
system: 786-0; test: NCI tumour cell line growth inhibition, 48 h
Calls of active or inactive are those of the source. Rule as the data show it: active = GI50 up to about 1.1 µM and inactive = higher.
assay.readout: GI50

>>> print(df.to_string())
                                   compound  assayed_target       value_reported
0  C=CCOc1ccc(C2c3c(n[nH]c3O)CC(O)(OCC)C2C(=O)OCC)cc1OC (stereo unspecified)           786-0  > 100 µM (inactive)
1   N#C/C(C(=O)Nc1ccc(Cl)cc1)=C(/N)N1CCOCC1           786-0  > 100 µM (inactive)
2  CCCCCC(/C=N/Nc1ccccc1)C(O)(C(F)(F)F)C(F)(F)F (stereo unspecified)           786-0  > 100 µM (inactive)
3  CCOC(=O)/C(C#N)=C(N)/C(=N\Nc1cccc(C(F)(F)F)c1)C(=O)OCC           786-0  > 100 µM (inactive)
4    O=C1c2cccc3cccc(c23)C(=O)N1CCN(CCO)CCO           786-0   40.6 µM (inactive)
5  CC1COC(C)(C)P(=O)(c2ccccc2)C1 (stereo unspecified)           786-0  > 100 µM (inactive)

###

test system: MCF7; assay: NCI tumour cell line growth inhibition, 48 h
Activity calls are given as the source filed them. Rule as the data show it: active = GI50 up to about 1.1 µM and inactive = higher.
Labels: 1.0 for active, 0.0 for inactive

molecule	class.assignment
CC[C@H]1C=CCC[C@@]2(C[C@@H]3CC[C@@H]4[C@H](C(=O)OCCCCCCCCCCCCCCCC(=O)O)[C@]5(CCC[C@@H](C)O5)NC(=[N+]34)N2)O1 [CRAMBESCIDIN 657]	1.0
CC(C)OP(=O)(OC(C)C)/C(C#N)=C/c1ccco1	0.0
C=C1C[C@H]2C=Nc3cc(OCCCOc4cc5c(cc4OC)C(=O)N4CC(=C)C[C@H]4C=N5)c(OC)cc3C(=O)N2C1 [SJG-136]	1.0
O=C(Cn1cc(F)c(=O)[nH]c1=O)C12CC3CC(CC(C3)C1)C2	0.0

###

tested on: XF498; test: NCI tumour cell line growth inhibition, 48 h
The source made the active and inactive calls. Cut-off read from the data, not from the text of the source: active = GI50 up to about 1.1 µM and inactive = higher.
Labels: active, inactive

                                    compound  class_assignment
 0  [O-][Cl+3]([O-])([O-])O.c1ccc(/N=c2\nc(N3CCOCC3)ss2)cc1          inactive
 1  C=CCN(CC=C)CC(C(C)=O)C(c1ccccc1)c1c(O)c2ccccc2oc1=O (stereo not given)          inactive
 2  CN(C)CC1(Cc2ccccc2)CCC(Cc2ccccc2)C1=O (stereo not given)          inactive
 3  O=C1OC(Cc2ccccc2)(N2CCCC2=O)C1c1ccccc1 (stereo not given)          inactive
 4  COc1ccc(-c2cc(N3CCN(c4ccc(Cl)cc4)CC3)c(C#N)c(=O)o2)cc1          inactive
 5  COc1c(CC=C(C)C)c(O)c(C(CC(C)C)c2c(O)c(CC=C(C)C)c(O)c(C(C)=O)c2O)c(O)c1C(C)=O (stereo not given)            active
 6  O=P(c1ccccc1)(c1ccccc1)C1CC=C(c2ccccc2)C2(CCCC2)C1 (stereo not given)          inactive
 7  CCOC(=O)CCC(=O)C1c2cccc(O)c2C(=O)c2c(O)cc(C)cc21 (stereo not given)            active
 8                  O=S1(=O)N2CN3CN(C2)CN1C3          inactive
 9  CCOC(=O)C1=C(C)NC(=S)NC1c1ccccc1 (stereo not given)          inactive
10  CCOC(=O)/C(=C\c1ccc(OCc2ccccc2)c(OC)c1)C(=O)c1ccccc1          inactive
11  NC1=NC(=O)/C(=C/c2ccccc2[N+](=O)[O-])C(N)=N1          inactive
12  [O-]c1on[n+]2c1c(Nc1ccc(Cl)cc1)nc1ccccc12          inactive
13  Cc1c(C2=NN=C(/N=N/c3c(O)cccc3O)/C2=C/c2ccccc2)c(=O)n(-c2ccccc2)n1C          inactive
14  CCOc1ccccc1NC(=O)C1=C(C)NC(C)=C(C(=O)Nc2ccccc2OCC)C1c1ccc2c(c1)OCO2          inactive
15  CN(C)CCNC(=O)c1ccc(Cl)c2c(Nc3ccc(S(=O)(=O)N=C(N)N)cc3)c3ccccc3nc12          inactive
16  Nc1ccc(C(=O)NN2C(=O)C(Cl)C2c2ccc(O)cc2)cc1 (stereo not given)          inactive
17  COC(=O)C1=C(c2cc(OC)c(OC)c(OC)c2)OC(c2cc(OC)c(OC)c(OC)c2)C1 (stereo not given)          inactive
18  CC1(C)C(=O)N(CCCCCCN2C(=O)C(C)(C)c3ccccc32)c2ccccc21          inactive
19  CCN(CC)CCN1C(=O)c2c(c3c4cccc(Cl)c4n(C4OC(CO)C(OC)C(O)C4O)c3c3[nH]c4c(Cl)cccc4c23)C1=O (stereo not given)            active
